Catalogue of pIC50 readings, one per entry.
# Tested on: Influenza A/WSN/33 (H1N1) virus
# assay info: In vitro anti-influenza virus assay (neutralization test), cytopathic effect on MDCK cells
# Format: cell-based
# test conditions: Influenza A/WSN/33 (H1N1), MDCK cells, 72 h, read-out: IC50 (concentration reducing virus-induced cytopathic effect by 50%)
pIC50: −log10 of the molar value.
metric name: pIC50

>>> print(df.to_string())
                               smiles_string                      system_name      measured
 0  Cc1cc(-c2cc(C(=O)O)c3cc(Br)ccc3n2)nn1-c1ccc2ccccc2n1  Influenza A/WSN/33 (H1N1) virus  5.23 to 6.00
 1  Cc1nc(-c2ccccc2)sc1-c1cc(C(=O)O)c2cc(Br)ccc2n1  Influenza A/WSN/33 (H1N1) virus  5.23 to 6.00
 2  Cc1cc(C)c(-n2ncc(-c3cc(C(=O)O)c4cc(Br)ccc4n3)c2C)c(C)c1  Influenza A/WSN/33 (H1N1) virus  5.23 to 6.00
 3  Cc1ccc(C)c(-n2ncc(-c3cc(C(=O)O)c4cc(F)ccc4n3)c2C)c1  Influenza A/WSN/33 (H1N1) virus  5.23 to 6.00
 4  Cc1c(-c2cc(C(=O)O)c3cc(Br)ccc3n2)cnn1-c1cccc([N+](=O)[O-])c1  Influenza A/WSN/33 (H1N1) virus  4.60 to 5.22
 5  Cc1c(-c2cc(C(=O)O)c3cc(Br)ccc3n2)cnn1-c1cc(F)ccc1F  Influenza A/WSN/33 (H1N1) virus  4.60 to 5.22
 6  Cc1cc(C(F)(F)F)cc(-n2nc(-c3cc(C(=O)O)c4cc(Br)ccc4n3)cc2C)n1  Influenza A/WSN/33 (H1N1) virus  5.23 to 6.00
 7  O=C(O)c1cc(-c2cnn(-c3ccccc3)c2)nc2ccc(Br)cc12  Influenza A/WSN/33 (H1N1) virus  4.60 to 5.22
 8  Cc1c(-c2cc(C(=O)O)c3cc(Br)ccc3n2)cnn1-c1c(Cl)cc(Cl)cc1Cl  Influenza A/WSN/33 (H1N1) virus  5.23 to 6.00
 9  Cc1c(-c2ccccc2)cccc1-c1cc(C(=O)O)c2cc(Br)ccc2n1  Influenza A/WSN/33 (H1N1) virus  5.23 to 6.00
10  Cc1c(-c2cc(C(=O)O)c3cc(Br)ccc3n2)cnn1-c1c(Cl)cccc1Cl  Influenza A/WSN/33 (H1N1) virus  4.60 to 5.22
11  Cc1cc(-c2cc(C(=O)O)c3cc(Br)ccc3n2)nn1-c1nc2ccccc2s1  Influenza A/WSN/33 (H1N1) virus  5.23 to 6.00
12  CCc1ccccc1-n1ncc(-c2cc(C(=O)O)c3cc(Br)ccc3n2)c1C  Influenza A/WSN/33 (H1N1) virus  5.23 to 6.00
13  Cc1c(-c2cc(C(=O)O)c3cc(F)ccc3n2)cnn1-c1ccccc1  Influenza A/WSN/33 (H1N1) virus  5.23 to 6.00
14  Cc1c(-c2cc(C(=O)O)c3cc(Br)ccc3n2)cnn1-c1ccc(F)c(F)c1  Influenza A/WSN/33 (H1N1) virus  5.23 to 6.00
15  Cc1c(-c2cc(C(=O)O)c3cc(Br)ccc3n2)noc1-c1ccccc1  Influenza A/WSN/33 (H1N1) virus  5.23 to 6.00
16  Cc1ccc(C)c(-n2ncc(-c3cc(C(=O)O)c4cc(Br)cc(C)c4n3)c2C)c1  Influenza A/WSN/33 (H1N1) virus  5.23 to 6.00

###

# Tested on: Influenza A/TW/355/97 (H1N1)
# assay info: Anti-influenza neutralization test, various influenza virus strains
# Type: cell-based
pIC50: −log10 of the molar value.
metric name: pIC50

                                   compound  metric_name  measured
0  CC(=O)N[C@H]1[C@H]([C@H](O)[C@H](O)CO)OC(C(=O)O)=C[C@@H]1N=C(N)N [Relenza, Zanamivir]        pIC50      5.98
1        NC12CC3CC(CC(C3)C1)C2 [Amantadine]        pIC50      4.90
